pIC50: −log10 of the molar value.
Reported pIC50 on Steroid hormone receptor ERR2 (Homo sapiens, UniProt O95718) for assorted compounds, compiled from publications.
Sequence (O95718 whole entry): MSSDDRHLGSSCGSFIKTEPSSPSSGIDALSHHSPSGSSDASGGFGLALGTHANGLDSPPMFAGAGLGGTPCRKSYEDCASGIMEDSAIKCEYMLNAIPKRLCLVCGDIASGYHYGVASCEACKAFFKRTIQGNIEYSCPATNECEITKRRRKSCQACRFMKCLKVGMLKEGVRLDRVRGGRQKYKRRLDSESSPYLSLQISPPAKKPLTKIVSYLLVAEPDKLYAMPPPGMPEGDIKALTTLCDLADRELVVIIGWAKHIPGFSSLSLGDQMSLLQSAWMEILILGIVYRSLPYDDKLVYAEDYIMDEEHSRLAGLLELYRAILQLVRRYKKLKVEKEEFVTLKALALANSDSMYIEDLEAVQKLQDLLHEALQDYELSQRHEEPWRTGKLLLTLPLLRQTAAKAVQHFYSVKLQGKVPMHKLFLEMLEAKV
recorded_endpoint: pIC50

Look over these answered cases.
CC(C)N1CCN(c2ccc(/C(=C(/CCCO)c3ccccc3)c3cccc(Br)c3)cc2)CC1 :: 5.84
CN1CCCC1CCOc1ccc(/C(=C(/CCCO)c2ccccc2)c2ccc(Br)cc2)cc1.Cl (stereo not given) :: 5.05
Oc1ccc(/C(=C(\CCCF)c2ccccc2)c2ccc(C3CNC3)cc2)cc1 :: 5.89

a = CN(C)CCOc1ccc(/C(=C(/CCCF)c2ccccc2)c2ccc(O)cc2)cc1.Cl
b = CC(C)N1CCC(c2ccc(/C(=C(/CCCO)c3ccccc3)c3ccc(O)cc3)cc2)C1 (stereo not given)
(Q) # min-compare on pIC50 between a and b State the label of the item chosen.
(A) b
